testSystem: UniProt P78329
Sequence (P78329 5-520): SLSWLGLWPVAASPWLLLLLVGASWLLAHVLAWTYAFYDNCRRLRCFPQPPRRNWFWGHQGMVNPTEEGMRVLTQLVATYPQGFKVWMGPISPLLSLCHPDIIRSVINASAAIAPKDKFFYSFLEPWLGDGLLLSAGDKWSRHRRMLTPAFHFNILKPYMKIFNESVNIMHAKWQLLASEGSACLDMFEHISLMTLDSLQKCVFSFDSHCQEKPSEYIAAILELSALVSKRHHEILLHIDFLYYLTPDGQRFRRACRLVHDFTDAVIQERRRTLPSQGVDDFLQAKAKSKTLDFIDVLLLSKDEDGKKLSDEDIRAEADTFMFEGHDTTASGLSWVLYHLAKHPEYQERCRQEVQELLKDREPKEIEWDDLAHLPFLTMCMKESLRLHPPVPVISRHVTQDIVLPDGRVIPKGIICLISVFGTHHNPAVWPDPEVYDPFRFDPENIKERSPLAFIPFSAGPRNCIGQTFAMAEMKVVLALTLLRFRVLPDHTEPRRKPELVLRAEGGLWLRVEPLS
assayMethodText: Inhibition of 20-HETE formation at 250 or 500 nM in rCYP4F2 incubations
Assay type: biochemical
conditions: 500 nM compound; rCYP4F2 25 pmol/mL; read-out: rCYP4F2 % inh. @ 500 nM
observedProperty: inhibition at 0.5 µM (%)

Solved cases below.
[[record]]
chemsmiles = "Fc1cccc(C2CCN(c3ccn[nH]3)CC2)c1"
observedproperty = "inhibition at 0.5 µM"
measurement = 63

[[record]]
chemsmiles = "Cc1ccc(C2CCN(c3ccn[nH]3)CC2)cc1"
observedproperty = "inhibition at 0.5 µM"
measurement = 70.8

[[record]]
chemsmiles = "COc1ccc(C2CCN(c3cn[nH]c3)CC2)cc1F"
observedproperty = "inhibition at 0.5 µM"
measurement = 86

[[record]]
chemsmiles = "COC(=O)c1cccc(C2CCN(c3ccn[nH]3)CC2)c1"
observedproperty = "inhibition at 0.5 µM"
measurement = 11.4

[[record]]
chemsmiles = "c1cnc(SC2CCN(c3cn[nH]c3)CC2)nc1"
observedproperty = "inhibition at 0.5 µM"
measurement = 26.4


[a] COc1ccc(SC2CCN(c3cn[nH]c3)CC2)cc1
[b] CC(=O)N(C)c1ccc(C2CCN(c3cn[nH]c3)CC2)cn1
[c] COc1cc(CC2CCN(c3cn[nH]c3)CC2)ccn1
[d] COc1cccc(C2CCN(c3cn[nH]c3)CC2)c1
[e] c1cnc(C2CCN(c3cn[nH]c3)CC2)nc1
// ascending sort on recorded inhibition at 0.5 µM Respond with the label ranking, as requested.
e, b, c, d, a
(e: 0%, b: 1%, c: 25%, d: 48.9%, a: 90%)

[P] COc1cc(C2CCN(c3ccn[nH]3)CC2)ccc1F
[Q] Cc1cc(N2CCC(c3ccccc3)CC2)[nH]n1
[R] O=C1CCCN1c1ccc(C2CCN(c3ccn[nH]3)CC2)cc1
Given 3 compounds, produce a descending ranking by inhibition at 0.5 µM. Respond with the label ranking, as requested.
R, P, Q
(R: 80%, P: 32%, Q: 22.3%)

[1] Cc1n[nH]cc1N1CCC(c2ccccc2)CC1
[2] CCS(=O)(=O)c1ccc(C2CCN(c3cn[nH]c3)CC2)cc1
// which entry reports the smaller inhibition at 0.5 µM, 1 or 2 ? Record your answer as the label of the chosen record.
1
(1: 31.9%, 2: 74.8%)

[1] COC(=O)c1cccc(C2CCN(c3cn[nH]c3)CC2)c1
[2] c1ccc(N2CCN(c3cn[nH]c3)CC2)cc1
// which entry reports the smaller inhibition at 0.5 µM, 1 or 2 ? Record your answer as the label of the chosen record.
2

[A] Clc1ccc(C2CCN(c3ccn[nH]3)CC2)cc1
[B] COc1cc(C2CCN(c3cn[nH]c3)CC2)ccc1F
Which of the two items, A and B , has the greater recorded inhibition at 0.5 µM? Record your answer as the label of the chosen record.
B
(B: 74.5%, A: 45%)

This collection of values is drawn from patent US12479816B2.
